Data provenance: patent US20260034119A1

Quick list: log10(EC50) per entry.
- target: human 5-HT1A (Homo sapiens, UniProt P08908)
- Sequence (P08908 whole entry): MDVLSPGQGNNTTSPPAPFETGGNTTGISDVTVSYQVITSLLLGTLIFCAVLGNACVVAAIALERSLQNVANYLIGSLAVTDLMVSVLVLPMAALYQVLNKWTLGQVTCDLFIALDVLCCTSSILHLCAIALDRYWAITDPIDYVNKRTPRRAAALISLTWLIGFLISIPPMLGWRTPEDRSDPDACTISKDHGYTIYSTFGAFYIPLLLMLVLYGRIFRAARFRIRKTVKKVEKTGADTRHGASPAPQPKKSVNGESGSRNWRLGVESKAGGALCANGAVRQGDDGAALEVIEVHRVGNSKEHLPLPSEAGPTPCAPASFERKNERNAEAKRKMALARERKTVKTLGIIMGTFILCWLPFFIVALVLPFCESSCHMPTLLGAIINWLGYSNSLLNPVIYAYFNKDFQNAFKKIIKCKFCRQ
- assay.text: 5-HT1A-mediated cAMP reduction assay (GloSensor, HEK293-T)
- study.conditions: EC50 (nM) Mean Gio(cAMP)-1A, Table 2
metric: log10(EC50) (log10 of the value in nM)

{"compound": "COc1ccc2[nH]cc(CCN3CCCCC3)c2c1F [Compound 12]", "result.number": 0.38}
{"compound": "Oc1ccc2[nH]cc(CCN3CCCC3)c2c1F [Compound 18]", "result.number": -1.40}
{"compound": "CC[C@H]1C[C@@H]2C=C[C@H]1N(CCc1c[nH]c3ccc(OC)c(F)c13)C2 [Compound 15]", "result.number": 1.67}
{"compound": "CCN(CC)CCc1c[nH]c2ccc(OC)c(F)c12 [Compound 3]", "result.number": -0.68}
{"compound": "CCCN(CCc1c[nH]c2ccc(OC)c(F)c12)C(C)C [Compound 8]", "result.number": 0.78}
{"compound": "C=CCN(C)CCc1c[nH]c2ccc(OC)c(F)c12 [Compound 10]", "result.number": 0.41}
{"compound": "COc1ccc2[nH]cc(CCN3C[C@H]4C=C[C@@H]3CC4)c2c1F [Compound 14]", "result.number": 2.24}
{"compound": "COc1ccc2c(c(CCN3CCCC3)cn2C)c1F [Compound 19]", "result.number": 2.00}
{"compound": "COc1ccc2[nH]cc(CCN(C)C(C)C)c2c1F [Compound 7]", "result.number": 0.47}
{"compound": "CCN(CC)CCc1c[nH]c2ccc(O)c(F)c12 [Compound 17]", "result.number": -0.12}
{"compound": "COc1ccc2[nH]cc(CCN(C(C)C)C(C)C)c2c1F [Compound 9]", "result.number": 0.78}
{"compound": "COc1ccc2[nH]cc(CCN3CCCC3)c2c1F [Compound 11]", "result.number": -1.52}
{"compound": "CCCN(CCC)CCc1c[nH]c2ccc(OC)c(F)c12 [Compound 6]", "result.number": 0.12}

* * *

- target: human 5-HT1A (Homo sapiens)
- assay.text: 5-HT1A-mediated cAMP reduction assay (GloSensor, HEK293-T)
- study.conditions: pEC50 Gio(cAMP)-1A, Table 2
I'd appreciate it if you marked entries label 1 when EC50 is lower than 0.2 nM and label 0 when it is not.

{"molecular.string": "COc1ccc2[nH]cc(CCN3CC=CC3)c2c1F", "cat": "label 1"}
{"molecular.string": "CN(C)CCc1c[nH]c2ccc(O)c(F)c12", "cat": "label 0"}
{"molecular.string": "CCCN(C)CCc1c[nH]c2ccc(OC)c(F)c12", "cat": "label 0"}
{"molecular.string": "COc1ccc2[nH]cc(CCN(C)C)c2c1F", "cat": "label 1"}
{"molecular.string": "CC[C@H]1C[C@@H]2C=C[C@H]1N(CCc1c[nH]c3ccc(OC)c(F)c13)C2", "cat": "label 0"}
{"molecular.string": "Oc1ccc2[nH]cc(CCN3CCCC3)c2c1F", "cat": "label 1"}
{"molecular.string": "CCCN(CCc1c[nH]c2ccc(OC)c(F)c12)C(C)C", "cat": "label 0"}
{"molecular.string": "COc1ccc2[nH]cc(CCN3CCCC3)c2c1F", "cat": "label 1"}
{"molecular.string": "CCN(C)CCc1c[nH]c2ccc(OC)c(F)c12", "cat": "label 0"}
{"molecular.string": "CCCN(CC)CCc1c[nH]c2ccc(OC)c(F)c12", "cat": "label 1"}

* * *

- target: 5-HT1A (Homo sapiens, UniProt P08908)
- Sequence (P08908 whole entry): as the sequence (P08908 whole entry) above
- assay.text: BRET signaling assay: 5-HT1A-mediated activation of heterotrimeric Gi1 (TRUPATH, HEK293-T)
- study.conditions: Gi BRET EC50
Quick list: EC50 per entry.
metric: EC50 (nM)

{"molecular.string": "COc1ccc2[nH]cc(CCN3CC=CC3)c2c1F", "metric": "EC50", "result.number": 0.22}
{"molecular.string": "COc1ccc2[nH]cc(CCN3CC=CC3)c2c1", "metric": "EC50", "result.number": 0.3}
{"molecular.string": "COc1ccc2[nH]cc(CCN3CCCC3)c2c1", "metric": "EC50", "result.number": 2.1}
{"molecular.string": "CCN(C)CCc1c[nH]c2ccc(OC)cc12", "metric": "EC50", "result.number": 25.9}
{"molecular.string": "CCN(CC)CCc1c[nH]c2ccc(OC)cc12", "metric": "EC50", "result.number": 37.1}

* * *

- assay.text: Mouse plasma protein binding
- Type: in vitro ADME
- study.conditions: mouse, plasma, read-out: % Bound Mean (converted)

{"molecular.string": "COc1ccc2[nH]cc(CCN3CCCC3)c2c1F", "fraction unbound": 0.626}

* * *

Quick list: EC50 per entry.
- target: human 5-HT1A (Homo sapiens)
- assay.text: 5-HT1A-mediated cAMP reduction assay (GloSensor, HEK293-T)
- study.conditions: EC50 (nM) 5-HT1A cAMP, Table 6, commercial ligands

{"molecule": "O=C1[C@@H]2[C@H]3CC[C@H](C3)[C@@H]2C(=O)N1CCCCN1CCN(c2ncccn2)CC1 [Tandospirone, reference compound]", "EC50": "1.51 nM"}
{"molecule": "c1ccc2c(N3CCNCC3)cccc2c1 [N-(1-naphthyl)piperazine, N-(1-Napthyl)piperazine, reference compound]", "EC50": "50.3 nM"}

* * *

- assay.text: In vivo pharmacokinetics in mice (plasma and brain, subcutaneous)
- Set-up: species or system mouse
- study.conditions: male, C57BL/6, mouse, brain, sc, 1 mg/kg, mouse brain, 1 mg/kg SC; read-out: Total Cmax (ng/mL), Brain

{"molecular.string": "COc1ccc2[nH]cc(CCN3CCCC3)c2c1F", "Cmax (ng/mL)": 143}

* * *

- target: 5-HT2A V366N (Homo sapiens, UniProt P28223, V366N)
- Construct: expressed in transfected cells; host or cells: HEK293-T
- Sequence (P28223 whole entry V366N): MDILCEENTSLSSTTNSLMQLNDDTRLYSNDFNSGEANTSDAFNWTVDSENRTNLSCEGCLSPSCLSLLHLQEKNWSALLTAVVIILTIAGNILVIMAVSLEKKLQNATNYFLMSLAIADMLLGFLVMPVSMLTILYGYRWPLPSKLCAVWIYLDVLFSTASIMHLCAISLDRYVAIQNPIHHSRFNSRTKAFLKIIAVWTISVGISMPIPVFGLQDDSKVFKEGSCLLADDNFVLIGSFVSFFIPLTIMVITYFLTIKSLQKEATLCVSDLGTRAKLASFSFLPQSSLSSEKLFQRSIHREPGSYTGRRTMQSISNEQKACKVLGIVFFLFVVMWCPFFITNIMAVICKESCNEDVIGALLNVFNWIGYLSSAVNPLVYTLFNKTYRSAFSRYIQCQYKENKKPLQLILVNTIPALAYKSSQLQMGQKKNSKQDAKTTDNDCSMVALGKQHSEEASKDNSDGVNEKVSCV
- assay.text: Gq BRET at mutant 5-HT2A V366N
- Type: cell-based
pEC50: −log10 of the molar value.

{"molecular.string": "COc1ccc2[nH]cc(CCN(C)C)c2c1F", "pEC50": 6.41}
{"molecular.string": "COc1ccc2[nH]cc(CCN3CCCC3)c2c1", "pEC50": 7.26}

* * *

- target: UniProt:P41595
- Sequence (P41595 whole entry, species assumed): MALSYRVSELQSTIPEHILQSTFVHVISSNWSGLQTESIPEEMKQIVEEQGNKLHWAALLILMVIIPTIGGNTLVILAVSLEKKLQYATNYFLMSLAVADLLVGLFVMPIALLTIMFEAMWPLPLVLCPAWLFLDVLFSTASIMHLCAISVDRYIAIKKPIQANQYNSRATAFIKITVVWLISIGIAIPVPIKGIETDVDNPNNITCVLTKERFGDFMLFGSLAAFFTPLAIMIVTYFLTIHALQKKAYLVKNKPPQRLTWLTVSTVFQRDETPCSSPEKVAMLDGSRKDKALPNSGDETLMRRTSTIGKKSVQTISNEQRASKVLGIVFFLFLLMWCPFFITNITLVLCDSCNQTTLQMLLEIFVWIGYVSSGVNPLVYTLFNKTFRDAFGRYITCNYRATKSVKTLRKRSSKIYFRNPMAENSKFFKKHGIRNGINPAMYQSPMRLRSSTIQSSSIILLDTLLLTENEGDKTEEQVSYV
- assay.text: IP1 functional assay 5-HT2B
- Format: cell-based
- study.conditions: read-out: 5-HT2B (IP1) Emax (%5-HT); Table 3
Quick list: Emax per entry.

{"compound": "CCN(C)CCc1c[nH]c2ccc(OC)cc12 [Compound 5-MeO-MET]", "Emax": "62%"}
{"compound": "CCCN(C)CCc1c[nH]c2ccc(OC)c(F)c12 [Compound 28]", "Emax": "47%"}
{"compound": "CCCN(C)CCc1c[nH]c2ccc(OC)cc12 [Compound 10, 5-MeO-MPT]", "Emax": "61%"}
{"compound": "CCN(C)CCc1c[nH]c2ccc(OC)c(F)c12 [Compound 26]", "Emax": "39%"}
{"compound": "CCCN(CCC)CCc1c[nH]c2ccc(OC)cc12 [Compound 13, 5-methoxy-N,N-dipropyl-tryptamine]", "Emax": "108%"}
{"compound": "CCCN(CCC)CCc1c[nH]c2ccc(OC)c(F)c12 [Compound 30]", "Emax": "86%"}

* * *

Quick list: Efficacy as %5HT 5-HT1A BRET Gi1 per entry.
- target: 5-HT1A (Homo sapiens, UniProt P08908)
- assay.text: BRET signaling assay: 5-HT1A-mediated activation of heterotrimeric Gi1 (TRUPATH, HEK293-T)
- study.conditions: Table 6, commercial ligands
metric: Efficacy as %5HT 5-HT1A BRET Gi1

{"compound": "NCCc1c[nH]c2ccc(O)cc12 [Compound 5-HT, 5-hydroxytryptamine, reference compound]", "metric": "Efficacy as %5HT 5-HT1A BRET Gi1", "result": "100.0 %5HT"}
{"compound": "O=C1CC2(CCCC2)CC(=O)N1CCCCN1CCN(c2ncccn2)CC1 [Buspirone, buspirone, reference compound]", "metric": "Efficacy as %5HT 5-HT1A BRET Gi1", "result": "93.4 %5HT"}
{"compound": "O=C1CCc2ccc(OCCCCN3CCN(c4cccc(Cl)c4Cl)CC3)cc2N1 [Aripiprazole, aripiprazole, reference compound]", "metric": "Efficacy as %5HT 5-HT1A BRET Gi1", "result": "77.1 %5HT"}
{"compound": "N#Cc1ccc2[nH]cc(CCCCN3CCN(c4ccc5oc(C(N)=O)cc5c4)CC3)c2c1 [Vilazodone, vilazodone, reference compound]", "metric": "Efficacy as %5HT 5-HT1A BRET Gi1", "result": "97.4 %5HT"}
{"compound": "COc1cc(CCN)cc(OC)c1OC [Mescaline, reference compound]", "metric": "Efficacy as %5HT 5-HT1A BRET Gi1", "result": "42.0 %5HT"}
